- MEASUREMENT_TARGET: native nAChRs of rat forebrain (Rattus norvegicus, UniProt P09483+P12390)
- Sequence (P09483 31-630 limits assumed): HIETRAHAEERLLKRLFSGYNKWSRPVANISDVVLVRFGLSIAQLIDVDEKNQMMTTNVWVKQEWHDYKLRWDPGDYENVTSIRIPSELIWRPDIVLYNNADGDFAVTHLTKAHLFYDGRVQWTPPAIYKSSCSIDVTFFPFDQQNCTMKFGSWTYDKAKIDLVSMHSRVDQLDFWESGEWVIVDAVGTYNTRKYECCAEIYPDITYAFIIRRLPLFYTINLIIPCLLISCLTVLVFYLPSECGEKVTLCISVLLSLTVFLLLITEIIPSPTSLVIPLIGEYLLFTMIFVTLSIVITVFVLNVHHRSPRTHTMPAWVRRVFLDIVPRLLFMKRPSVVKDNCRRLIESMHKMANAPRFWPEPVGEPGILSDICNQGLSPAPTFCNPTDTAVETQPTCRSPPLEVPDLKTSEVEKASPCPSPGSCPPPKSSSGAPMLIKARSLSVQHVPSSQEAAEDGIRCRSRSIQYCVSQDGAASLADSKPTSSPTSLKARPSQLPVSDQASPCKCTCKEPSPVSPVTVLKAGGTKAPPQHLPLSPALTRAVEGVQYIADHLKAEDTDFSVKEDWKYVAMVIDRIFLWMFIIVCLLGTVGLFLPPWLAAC
- Sequence (P12390 25-500 limits assumed): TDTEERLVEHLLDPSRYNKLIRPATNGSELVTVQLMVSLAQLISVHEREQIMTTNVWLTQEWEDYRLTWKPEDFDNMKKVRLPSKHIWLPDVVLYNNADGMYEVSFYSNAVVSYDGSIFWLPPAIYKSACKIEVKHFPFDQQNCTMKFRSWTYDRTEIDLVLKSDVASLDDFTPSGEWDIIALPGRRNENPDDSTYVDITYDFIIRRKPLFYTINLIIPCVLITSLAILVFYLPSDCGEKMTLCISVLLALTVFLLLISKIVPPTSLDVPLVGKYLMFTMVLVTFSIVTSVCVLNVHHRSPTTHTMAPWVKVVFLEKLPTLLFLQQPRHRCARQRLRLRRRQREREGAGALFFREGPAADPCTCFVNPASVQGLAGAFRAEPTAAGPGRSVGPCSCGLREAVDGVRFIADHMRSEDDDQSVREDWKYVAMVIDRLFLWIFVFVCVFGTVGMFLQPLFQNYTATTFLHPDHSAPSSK
- CONDITIONS: Table 1
Listed below: Ki values for each entry.
OUTCOME_MEASURE: Ki (µM)

>>> print(df.to_string())
                                   molecule                        measurement_target  outcome_measure  obs_value
0  Cc1ncc(C#CC2CC2)cc1OC[C@@H]1CCN1 [(S)-27]  native nAChRs of rat forebrain (Rattus norvegicus, UniProt P09483+P12390)               Ki      0.031
1  Cc1ncc(C#CCCCCCl)cc1OC[C@@H]1CCN1 [(S)-21]  native nAChRs of rat forebrain (Rattus norvegicus, UniProt P09483+P12390)               Ki      0.032
2  CCCCC#Cc1cnc(C)c(OC[C@H]2CCN2)c1 [(R)-15]  native nAChRs of rat forebrain (Rattus norvegicus, UniProt P09483+P12390)               Ki        4.3
3       c1cnc2cc3c(cc2n1)[C@@H]1CNC[C@H]3C1  native nAChRs of rat forebrain (Rattus norvegicus, UniProt P09483+P12390)               Ki     0.0011

###

- MEASUREMENT_TARGET: native nAChRs of rat forebrain (Rattus norvegicus, UniProt P09483+P12390)
- CONDITIONS: Table 1
OUTCOME_MEASURE: log10 of Ki (log10 of the value in nM)

>>> print(df.to_string())
                                   compound  obs_value
0  CCCCC#Cc1cnc(C)c(OC[C@@H]2CCN2)c1 [(S)-15]       1.72
1  Cc1ncc(C#CCCCCO)cc1OC[C@@H]1CCN1 [(S)-17]       1.04
2  OCCCCC#Cc1cncc(OC[C@@H]2CCN2)c1 [Sazetidine-A, reference compound]      -0.77
3  CCCCC#Cc1cnc(C)c(OC[C@H]2CCCN2)c1 [(R)-16]       5.04
4  CCCCC#Cc1cnc(C)c(OC[C@@H]2CCCN2)c1 [(S)-16]       2.73
